# Target entity: Fructose-bisphosphate aldolase (Mycobacterium tuberculosis (strain ATCC 25618 / H37Rv)) (UniProt P9WQA3)
# Sequence (P9WQA3 whole entry, looked up): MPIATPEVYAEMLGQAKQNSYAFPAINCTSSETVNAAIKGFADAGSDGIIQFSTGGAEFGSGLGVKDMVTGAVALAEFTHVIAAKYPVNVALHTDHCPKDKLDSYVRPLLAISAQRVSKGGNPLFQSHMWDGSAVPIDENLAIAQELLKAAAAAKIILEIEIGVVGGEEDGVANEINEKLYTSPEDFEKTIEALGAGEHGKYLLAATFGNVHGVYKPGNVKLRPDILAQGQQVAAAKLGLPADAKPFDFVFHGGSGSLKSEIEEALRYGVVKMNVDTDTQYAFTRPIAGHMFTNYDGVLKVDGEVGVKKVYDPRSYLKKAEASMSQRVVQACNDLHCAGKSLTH
# Measurement notes: Mtb FBA enzyme inhibitors, primary screen, biochemical, fluorescence, strain H37Rv (AID 588726);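 note: 0% = vehicle and 100% = reference inhibitor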
# Test parameters: purified M. tuberculosis FBA, fluorescence read-out, at 1 µM, stronger effect = higher value
Hit rate of the full screen: of about 360,000 compounds, about 8,200 (2.3%) were called active. The full list was thinned out, with actives kept by preference.
Property measured: inhibition (%)

1. N#Cc1nc(COc2ccc(Cl)cc2)oc1N1CCCC1    -2.71
2. COc1ccc(-c2oc3ncn(Cc4ccco4)c(=N)c3c2-c2ccc(OC)cc2)cc1    7.98
3. Cc1cc(C)c2c(n1)sc1c(=O)n(-c3ccccc3)c(=O)[nH]c12    38.8
4. COCCCn1c(SCC(=O)NC2CCCC2)nnc1-c1ccccc1    -5.58
5. COc1cccc(N2CCN(c3ccc4nnc(CCC(=O)N5CCN(C)CC5)n4n3)CC2)c1    1.71
6. COc1ccccc1N(C)S(=O)(=O)c1ccc(C(=O)N2CCC(C(N)=O)CC2)cc1    2.31
7. Cc1cc(C)c2c(NC(=O)C3CC3)nn(C)c2n1    46.1
8. CCc1cccc2c(=O)c(C(=O)NCCCOC)c[nH]c12    1.41
9. Cc1cc(=O)n2nc(N3CCC(C(=O)Nc4c(F)c(F)c(F)c(F)c4F)CC3)sc2n1    -1.25
10. COCCNc1ncnc2c1ncn2[C@H]1CN(Cc2ccc(OC)cc2)C[C@@H](CO)O1    1.53

* * *

Form field: inhibition (one value per entry).
# Target entity: Fructose-bisphosphate aldolase (Mycobacterium tuberculosis (strain ATCC 25618 / H37Rv))
# Measurement notes: Mtb FBA enzyme inhibitors, primary screen, biochemical, fluorescence, strain H37Rv (AID 588726);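 note: 0% = vehicle and 100% = reference inhibitor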
# Test parameters: purified M. tuberculosis FBA, fluorescence read-out, at 1 µM, stronger effect = higher value
In all, about 360,000 compounds went through this assay and about 8,200 (2.3%) were called active. This excerpt belongs to a sample that is enriched for actives.
Property measured: inhibition

1) COc1ccc(NC(=O)CN(C)C(=O)c2cc(-c3ccc(C)o3)nc3ccccc23)cc1    71.2% (active)
2) COc1ccc(-c2cc(C(=O)n3cnc4ccccc43)c3ccccc3n2)cc1    113% (active)
3) CN(CCOc1ccccc1)C(=O)c1cc(COc2c(F)cccc2F)on1    -3.64% (inactive)
4) C/C(N)=C(/C#N)C(=O)COC(=O)c1cc(-c2ccc(C)cc2)nc2ccccc12    0.39% (inactive)
5) CN(C(=O)COC(=O)c1cc(-c2ccco2)nc2ccccc12)C1CCS(=O)(=O)C1 (stereo not given)    4.55% (inactive)

* * *

# Target entity: Fructose-bisphosphate aldolase (Mycobacterium tuberculosis (strain ATCC 25618 / H37Rv))
# Measurement notes: Mtb FBA enzyme inhibitors, primary screen, biochemical, fluorescence, strain H37Rv (AID 588726);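 note: 0% = vehicle and 100% = reference inhibitor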
# Test parameters: purified M. tuberculosis FBA, fluorescence read-out, at 1 µM, stronger effect = higher value
About 8,200 (2.3%) of roughly 360,000 compounds were called active. The list comes from a sample in which actives are over-represented; it also holds close analogues and randomly drawn compounds.
Form field: inhibition (one value per entry).
Property measured: inhibition

1. Cc1ccc(OCC(=O)NC(C)c2ccccc2)c([N+](=O)[O-])n1 (stereo not given)    -3.72% (inactive)
2. O=C(CC1SC(N2CCCC2)=NC1=O)Nc1ccc(C(=O)NCCc2ccc(F)cc2)cc1 (stereo not given)    -0.1% (inactive)
3. Cc1cc(OCC(=O)NCC(O)c2ccccc2)c2c(C)c(C)c(=O)oc2c1 (stereo not given)    66.1% (active)
4. COc1ccc(CCNC(=O)COc2cc(C)cc3oc(=O)c(C)c(C)c23)cc1OC    2.14% (inactive)
5. CCOC(=O)[C@@H]1[C@H]2COc3cc(OC)ccc3[C@H]2N2C(=O)N(c3ccc(F)cc3)C(=O)[C@]12C    0.06% (inactive)
6. COc1cccc(CCNC(=O)COc2cccc3c2OC(C)(C)C3)c1    -1.69% (inactive)
7. Cc1cc(OCC(=O)Nc2nccs2)c2c(C)c(C)c(=O)oc2c1    5.31% (inactive)
8. CCc1ccc(OCC(=O)OCC(=O)c2c(N)n(C)c(=O)n(C)c2=O)cc1    3.53% (inactive)
9. CN(C)S(=O)(=O)c1ccc(NC(=O)N2CCOCC2)cc1    3.98% (inactive)
10. CN(C)S(=O)(=O)c1cccc(NC(=S)N/N=C/C(=O)c2ccccc2)c1    -3.5% (inactive)

* * *

# Target entity: Fructose-bisphosphate aldolase (Mycobacterium tuberculosis (strain ATCC 25618 / H37Rv)) (UniProt P9WQA3)
# Measurement notes: Mtb FBA enzyme inhibitors, primary screen, biochemical, fluorescence, strain H37Rv (AID 588726);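 note: 0% = vehicle and 100% = reference inhibitor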
# Test parameters: purified M. tuberculosis FBA, fluorescence read-out, at 1 µM
Screen size: about 360,000 compounds; about 8,200 (2.3%) were called active. No stated cut-off is given here; in the data, active means inhibition above about 27%; inactive means the rest. The list comes from a sample in which actives are over-represented; it also holds close analogues and randomly drawn compounds.
Labels: class 1 (active), class 0 (inactive)

1. CC1(C(=O)Nc2cccc3c2CCCC3)CCN1C(=O)CCc1ccc(Cl)cc1Cl (configuration not stated)    class 0
2. O=C(O)c1[nH]c2ccccc2c1C(c1cccc(O)c1)c1c(C(=O)O)[nH]c2ccccc12    class 0
3. O=C(NCCc1ccccc1)c1c[nH]c2ccc(F)cc2c1=O    class 0
4. CC(=O)Nc1ccc2nc(NC(=O)CS(=O)(=O)c3ccc(F)cc3)sc2c1    class 0
5. CC(C)NS(=O)(=O)c1ccc(CCC(=O)N2CCOCC2)cc1    class 0
6. CN(Cc1ccccc1)C(=O)C1CCCN(c2ncnc3c2nc2n3CCCCC2)C1 (configuration not stated)    class 0
7. O=C(COC(=O)/C=C/c1ccc(Cl)cc1)NC1CCS(=O)(=O)C1 (configuration not stated)    class 0
8. O=C(COC(=O)CCCN1C(=O)c2cccc3cccc(c23)C1=O)NC1CCS(=O)(=O)C1 (configuration not stated)    class 1
9. CC(C)=CCCC1(C)C=Cc2c(ccc3c2[nH]c2cc(O)c(C)cc23)O1 (configuration not stated)    class 0
10. CCOc1ccc2nc(Nc3nc4ccc(NC(C)=O)cc4s3)sc2c1    class 1
11. CCCS(=O)(=O)Nc1c(C(=O)O)[nH]c2ccccc12    class 1
12. CCOC(=O)C1CCN(C(=O)Cc2c(C(=O)O)[nH]c3ccccc23)CC1    class 0
13. Cc1sc2nc(-c3ccccc3F)oc(=O)c2c1C    class 0
14. OCC[C@H]1C[C@@H](O)[C@H](O)[C@]2(OCCCc3ccccc32)O1    class 0
15. O=C(CNC(=O)[C@@H]1Cc2ccccc2CN1)NC1CCCCC1    class 0
16. Cc1[nH]nc(-c2ccc(OCc3cnn(-c4ccccc4)c3)cc2O)c1Oc1ccc(Cl)cc1    class 0
17. COc1ccccc1-c1sc2ccccc2c1C#CC1(O)CCCCC1    class 0
18. CC(=O)Oc1c(C(=O)c2nnc(C)o2)c(=O)n(Cc2ccccc2)c2ccccc12    class 0
19. CCOCCCN(C)C1CCN(C(=O)c2oc3ccccc3c2NC(=O)Cc2cccc([N+](=O)[O-])c2)CC1    class 0
20. COc1ccccc1-c1oc2ccccc2c1C#CCCCCO    class 1
21. COC(=O)c1sc(-c2ccc(C(C)(C)C)cc2)cc1NC(=O)/C=C/C(=O)O    class 0
22. CCOC(=O)c1ccc(CS(=O)c2ccc(Cl)cc2)o1 (configuration not stated)    class 0

* * *

# Target entity: Fructose-bisphosphate aldolase (Mycobacterium tuberculosis (strain ATCC 25618 / H37Rv)) (UniProt P9WQA3)
# Measurement notes: Mtb FBA enzyme inhibitors, primary screen, biochemical, fluorescence, strain H37Rv (AID 588726);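 note: 0% = vehicle and 100% = reference inhibitor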
# Test parameters: purified M. tuberculosis FBA, fluorescence read-out, at 1 µM, stronger effect = higher value
The campaign covered roughly 360,000 compounds. About 8,200 (2.3%) were called active. What follows is part of a selection rich in actives, with near analogues and random picks from the rest.
Form field: inhibition (one value per entry).
Property measured: inhibition (%)

1) O=C(COc1ccc2oc3c(c2c1)CCCC3)Nc1ccccn1    1.77
2) COc1ccc(/C=C/C(=O)OCC(=O)Nc2cccc(Oc3ccccc3)c2)c(OC)c1    -1.32
3) CCCCN(C)CCC(=O)Nc1ccc(Cl)cc1    0.51
4) COc1cc2c(-c3ccc4c(c3)OCO4)c(-c3ccsc3)oc(=O)c2cc1OC    2.51
5) NC(=O)COc1ccc2c3c(c(=O)oc2c1)CCCCC3    114
6) COc1cc(C2NC(=O)NC(c3ccccc3)=C2C(C)=O)c(Br)cc1OCC(N)=O (stereo not drawn)    1.26
7) Cc1cccc(-c2nc3ccc(C(=O)NCCN4CCN(C)CC4)cc3nc2-c2cccc(C)c2)c1    25.3
8) CCN(CC)CCNCc1ccc(OCc2ccc(Cl)nc2)c(OC)c1    -0.85
9) O=C(NNC(=S)NC1CC2CCC1C2)c1ccc(Cl)cc1 (stereo not drawn)    -1.27
10) COc1cccc(NC(=O)CN(C)C(=O)Cc2ccc(Cl)cc2Cl)c1    -2.96
11) CCCc1cc(=O)[nH]c(SCC(=O)Nc2ccc(S(=O)(=O)N3CCCC3)cc2)n1    1.25
12) CCN1CC=C2C(C#N)=C(N)C(C#N)(C#N)[C@H](c3ccoc3)[C@H]2C1    28
13) COC(=O)c1c(-c2ccsc2)oc2ccc(-c3cc(OC)c(OC)c(OC)c3)cc12    27.6
14) COCCCNC(=O)c1ccc(-c2c(C)noc2C)c2ccoc12    1.17
15) COc1ccc(NC(=O)CCC(=O)N2CCN(S(=O)(=O)c3ccc(C)cc3)CC2)c(OC)c1    -0.33
16) Cc1ccc(-n2nc3c(c2NC(=O)c2ccc4c(c2)OCO4)CSC3)c(C)c1    0.86
17) CCc1ccc(C(=O)NC(=S)Nc2ccccc2N2CCOCC2)cc1    0.12
18) COc1ccc(C(=O)Nc2ccc(C(=O)NCC3CCCO3)cc2)c(OC)c1OC (stereo not drawn)    -1.55
19) O=[N+]([O-])c1ccc2nc(-c3ccccn3)[nH]c2c1    -3.65
20) CC(=O)Nc1ccc(Oc2ccc3c(c2)C(=O)NC3=O)cc1    2.21
21) C=CCO/N=C/C1=C(O)C(C(=O)OC)C(C)(C)CC1=O (stereo not drawn)    0.55
22) COc1cc(NC(=O)c2ccccc2NS(=O)(=O)c2ccc(Cl)s2)cc(OC)c1    2.51
23) Cc1nonc1C1CCCN1C(=O)c1cc(COc2cccc(C(F)(F)F)c2)on1 (stereo not drawn)    -1.66
24) COC(=O)c1ccc([C@@H](O)[C@H](C)C(=O)CC(=O)OC(C)(C)C)cc1    0.55
25) COc1ccc(C)cc1NC(=O)CSc1nnc2ccc(-c3ccccn3)nn12    5.79
26) O=C(Nc1cccc(Cl)c1)Nc1ccccc1NS(=O)(=O)c1cccs1    -6.91
27) CC1C(C)N(C(=O)CCl)c2ccccc2N1C(=O)CCl (stereo not drawn)    -0.21
28) CCOC(=O)C1CN(S(=O)(=O)c2ccc(OC)cc2)c2cc(Cl)ccc2O1 (stereo not drawn)    2.59
29) CCCOc1ccc2c3c(c(=O)oc2c1OCCC)CCC3    16
30) CC(=O)Oc1cc2c(C(=O)NCCN3CCOCC3)c(C)oc2c2ccccc12    0.36
31) COc1ccc(-c2cc(C(=O)NCCCN3CCOCC3)no2)cc1    3.9
32) C[C@H](OC(=O)n1ccnc1)[C@@H]1O[C@@]2(C)CCC[C@@H]1O2    -0.83
33) C=CCNC(=O)c1ccc2c3n(nc2c1)-c1ccc(C)cc1CO3    46.8
34) COc1ccc(-c2ccc(C(=O)NCCN3CCOCC3)c3occc23)c(C)c1    88.1
35) COc1ccc(S(=O)(=O)N2CCN(c3cnccn3)CC2)cc1    2.14
36) COc1cc(-c2nnc(NC(=O)CS(=O)(=O)c3ccc(Cl)cc3)o2)cc(OC)c1OC    -1.58
37) Cc1cc(C)nc(Nc2n[nH]c(-c3ccccc3N)n2)n1    15.2
38) COc1cccc(NC(=O)CN(C)C(=O)/C=C/c2cc(OC)ccc2OC)c1    57.2
39) O=C(CN(C(=O)c1csnn1)c1ccc(Br)cc1)NC1CCCC1    2.14
40) COc1cccc(NC(=O)CN(C)CC(=O)Nc2ccc3c(c2)CCC3)c1    55.8
41) COc1ccc(-c2ccc(C(=O)NC(C)C)c3occc23)c(C)c1    69.8
42) COc1cccc(N2CC(NC(=O)c3ccc4ccccc4c3)CC2=O)c1 (stereo not drawn)    1.83
43) O=C(N/N=C/c1cccc2cccnc12)[C@H]1C[C@@H]1c1ccccc1    -0.16
